Tested on: SNB-19 CNS
Assay: NCI-60 one-dose screen, 48 h (100 = growth as untreated, 0 = no growth, -100 = all killed)
Conditions: 10 µM unless noted
This is part of a sample that, as a whole, favours compounds with a hit. Of some 83,000 tested, about 20% had one in any assay.
Please go through the items and note down their growth.
Quick note: give the figure in %, leave out the unit.

Q. Which growth is reported with SNB-19 CNS for this entry: CSC(SC)=C(C#N)c1nc2ccccc2s1 ?
A. 66.9

Q. Which growth is reported with SNB-19 CNS for this entry: C=C1C(=O)O[C@H]2[C@H]1CC/C(COC(=O)/C=C\C(=O)NCc1ccc(Cn3c(=O)sn(CCCCC)c3=O)cc1)=C\CC[C@@]1(C)O[C@@H]21 ?
A. 94.8

Q. Which growth is reported with SNB-19 CNS for this entry: C=C(c1ccc(OC)c(/C=C/C(=O)c2ccc3c(c2)OCO3)c1)c1cc(OC)c(OC)c(OC)c1 ?
A. 30.9

Q. Which growth is reported with SNB-19 CNS for this entry: COc1cc(OC)c(C(=O)C(CN(C)C)CN(C)C)cc1OC ?
A. 102

Q. Which growth is reported with SNB-19 CNS for this entry: O=C1/C=C/[C@@H](O)[C@@H]2C[C@@H](O)C[C@H]2/C=C/CCC[C@H](CCO)O1 ?
A. 31.4

Q. Which growth is reported with SNB-19 CNS for this entry: FC(F)(F)c1ccc(Cn2cc(CSc3nc4ccccc4s3)nn2)cc1 ?
A. 101

Q. Which growth is reported with SNB-19 CNS for this entry: NC(=O)c1c(NC(=O)c2cccc(C(F)(F)F)c2)sc2c1CCC(=O)C2 ?
A. 11.6

Q. Which growth is reported with SNB-19 CNS for this entry: CCN1CCN(c2cc(C)nc(N(CCNc3ccnc4cc(Cl)ccc34)Cc3ccc4c(c3)OCO4)n2)CC1 ?
A. 29.7

Q. Which growth is reported with SNB-19 CNS for this entry: CCO/C=N/C1=C(C#N)C(c2ccc(F)cc2)c2sc3c(F)cccc3c2O1 (centres undefined) ?
A. 33.2

Q. Which growth is reported with SNB-19 CNS for this entry: COc1ccc(/C=C/C(=O)c2cc(OC)c(OC)c(OC)c2)cc1OCC(=O)Nc1nc2ccc(OC(F)(F)F)cc2s1 ?
A. 12.9

Q. Which growth is reported with SNB-19 CNS for this entry: C=C1C(=O)O[C@H]2[C@H]1CC/C(COC(=O)NCc1ccc(Cn3c(=O)sn(-c4ccc(C#N)cc4)c3=O)cc1)=C\CC[C@@]1(C)O[C@@H]21 ?
A. 88.5

Q. Which growth is reported with SNB-19 CNS for this entry: COc1cccc(NCc2nnc(Nc3ccc(Cl)cc3)c3ccccc23)c1 ?
A. 17.8

Q. Which growth is reported with SNB-19 CNS for this entry: Cc1ccc(/C=C(\C#N)n2nnc3cc(F)c(F)cc32)cc1 ?
A. 31.9

Q. Which growth is reported with SNB-19 CNS for this entry: C=Cc1cnc(Nc2ccc(OC)cc2)nc1NCCCNC(=O)C1CCC1 ?
A. 57.5

Q. Which growth is reported with SNB-19 CNS for this entry: CO[C@H]1CC(=O)n2c3ccccc3c3c4c(c5c6ccccc6n1c5c32)C(=O)NC4=O ?
A. 98.4

Q. Which growth is reported with SNB-19 CNS for this entry: CC(=O)c1ccc(Nc2nccc(-c3ccc4ccccc4c3)n2)cc1 ?
A. 94.9

Q. Which growth is reported with SNB-19 CNS for this entry: Cc1ccc(-c2nc3nc(-c4ccccc4)nc(N4CCCN(S(C)(=O)=O)CC4)c3o2)cc1 ?
A. 86.5

Q. Which growth is reported with SNB-19 CNS for this entry: COc1ccc(C(=O)c2cc3c(N)c(C(=O)Nc4ccccc4)sc3nc2C)cc1 ?
A. 25.2

Q. Which growth is reported with SNB-19 CNS for this entry: COc1cccc(/C=C/C(=O)c2cccc(Nc3nc(Nc4ccccc4)nc(Nc4ccccc4)n3)c2)c1 ?
A. 102
